EXPERIMENT DESCRIPTION: solubility of crystalline Form I in media (water) at 37° C.
Format: physicochemical
TEST CONTEXT: water, 37 °C, thermodynamic from solid; H2O, 24 h, triplicate H2O-1 to H2O-3

- MOLECULE: "O=C1CCC(N2Cc3ccc(COC(=O)Nc4cc(OC(F)(F)F)ccc4F)cc3C2=O)C(=O)N1 (stereo not shown) [Form I]"
  solubility at 24 h: "< 1 µg/mL"

---

EXPERIMENT DESCRIPTION: solubility of crystalline Form I in media (water) at 37° C.
Type: physicochemical
TEST CONTEXT: water, 37 °C, water, thermodynamic from solid; read-out: solubility in water

- COMPOUND: "O=C1CCC(N2Cc3ccc(COC(=O)Nc4cc(OC(F)(F)F)ccc4F)cc3C2=O)C(=O)N1 (stereo not shown) [Form I]"
  solubility: "< 1 µg/mL"
